The reported numbers originate from PubChem BioAssay AID248.

Provide the recorded T/C for the entries that follow.
test system: L1210 leukemia ip in BDF1 mice, survival T/C; assay: NCI In Vivo Anticancer Drug Screen. Data for tumor model L1210 Leukemia (intraperitoneal) in B6D2F1 (BDF1) mice; details: endpoint: mean survival time; dose: 400.0 mg/kg/injection; schedule: Q01DX001 (ip); vehicle: Klucel (hydroxypropylcellulose) (HPC); higher = longer survival
Inconclusive results and toxic doses are left out.

Examples with their reported T/C follow.
[
  {
    "Smiles input": "O=c1[nH]c2sccc2c(=O)n1O",
    "Data value": "97 % of control"
  },
  {
    "Smiles input": "COc1ccccc1NNS(=O)(=O)c1cccc([N+](=O)[O-])c1",
    "Data value": "105 % of control"
  }
]

// switching to the query compound
Param item = CN1CCC/C1=N\c1nn[nH]n1 ; retrieve measured T/C.
93 % of control

====

tested on: L1210 leukemia ip in BDF1 mice, survival T/C; experiment: NCI In Vivo Anticancer Drug Screen. Data for tumor model L1210 Leukemia (intraperitoneal) in B6D2F1 (BDF1) mice; settings: endpoint: mean survival time; dose: 200.0 mg/kg/injection; schedule: Q04DX003 (ip); vehicle: saline with Tween-80; higher = longer survival
Inconclusive results and toxic doses are left out.
Provide the recorded T/C for the entries that follow.

Would you be so kind as to report T/C for each listed record?
1. CC1=CC2=C(C=O)C(=O)[C@](C)(O)[C@@H](O)C2=CO1
2. Cn1cc(Cc2ccccc2)c(=O)n(C)c1=O
3. CC(C)(CO)Nc1ccccc1

["117 % of control", "100 % of control", "90 % of control"]

Would you be so kind as to report T/C for each listed record?
1. CCC1(C)N=C(C)C(C)S1 (stereo not drawn)
2. c1ccc(C(c2cccc3ccccc23)N2CCCCC2)cc1 (stereo not drawn)
3. O=C(CCCC(=O)N/N=C/c1ccc2c(c1)CCC2)N/N=C/c1ccc2c(c1)CCC2
4. OC1(c2ccccc2)CCN(C/C=C/c2ccccc2Cl)CC1
5. CNc1ccc(C(=O)C2CC2)cc1

["100 % of control", "96 % of control", "97 % of control", "93 % of control", "100 % of control"]

Would you be so kind as to report T/C for each listed record?
1. CC(=O)C(C(C)=O)C1C=CCC1 (stereo not drawn)
2. COC(=O)CCCCCCCCC(C)c1ccc(C(C)=O)cc1 (stereo not drawn)
3. On1nnc2ccc(Cl)cc21

107 % of control
95 % of control
95 % of control

Would you be so kind as to report T/C for each listed record?
1. N#Cc1cccnc1
2. CCCCCCCCCCCCCCCCOc1cccc(C=O)c1
3. CCOC(=O)Nc1nccs1
4. C1=CC2C3C=CC(CC3)C2CC1 (stereo not drawn)
5. CCC(O)(c1ccccc1)c1cnc(C)n1Cc1ccccc1 (stereo not drawn)
6. COc1cc(CC2Cc3cccc(=O)c(O)c3C(=O)O2)cc(OC)c1OC (stereo not drawn)
7. CCCCCCCCCCCCCCCCCCOC(C)OCCCCCCCCCCCCCCCCCC

["102 % of control", "93 % of control", "96 % of control", "97 % of control", "100 % of control", "95 % of control", "89 % of control"]

====

tested on: L1210 leukemia ip in BDF1 mice, survival T/C; assay: NCI In Vivo Anticancer Drug Screen. Data for tumor model L1210 Leukemia (intraperitoneal) in B6D2F1 (BDF1) mice; conditions: endpoint: mean survival time; dose: 50.0 mg/kg/injection; schedule: Q01DX009 (ip); vehicle: Klucel (hydroxypropylcellulose) (HPC); higher = longer survival
Inconclusive results and toxic doses are left out.
Provide the recorded T/C for the entries that follow.

Examples with their reported T/C follow.
[
  {
    "Compound": "CCOC(=O)C(C#N)C1CCCCC1 (stereo unspecified)",
    "Tested target": "L1210 leukemia ip in BDF1 mice, survival T/C",
    "T/C": "102 % of control"
  },
  {
    "Compound": "C[N+](C)(C)Cc1ccccc1C=C(c1ccccc1)c1ccccc1",
    "Tested target": "L1210 leukemia ip in BDF1 mice, survival T/C",
    "T/C": "98 % of control"
  },
  {
    "Compound": "COC(=O)c1nccnc1N",
    "Tested target": "L1210 leukemia ip in BDF1 mice, survival T/C",
    "T/C": "94 % of control"
  },
  {
    "Compound": "COc1ccc(SC2CCCCC2OS(C)(=O)=O)cc1 (stereo unspecified)",
    "Tested target": "L1210 leukemia ip in BDF1 mice, survival T/C",
    "T/C": "107 % of control"
  },
  {
    "Compound": "Nc1nc(N)c(CCCCc2ccccc2)c(-c2ccccc2)n1",
    "Tested target": "L1210 leukemia ip in BDF1 mice, survival T/C",
    "T/C": "98 % of control"
  }
]

// switching to the query compound
Param item = CNC(Cc1ccccc1)C1CCCCC1 (stereo unspecified) ; retrieve measured T/C.
95 % of control

====

test system: L1210 leukemia ip in BDF1 mice, survival T/C; experiment: NCI In Vivo Anticancer Drug Screen. Data for tumor model L1210 Leukemia (intraperitoneal) in B6D2F1 (BDF1) mice; settings: endpoint: mean survival time; dose: 400.0 mg/kg/injection; schedule: Q04DX003 (ip); vehicle: saline; higher = longer survival
Toxic doses and inconclusive results are not listed.
Observation type: T/C

[
  {
    "Compound": "CC1(C#N)CCc2c(ccc3ccccc23)C1=O (stereo not given)",
    "Observation type": "T/C",
    "Data value": "101 % of control"
  }
]

Would you be so kind as to report T/C for each listed record?
1. CCN(c1c(C)cc(C)c(N(CC(=O)O)S(=O)(=O)c2ccccc2)c1C)S(=O)(=O)c1ccccc1
2. CCCCCC(=O)NCC(=O)N1CCC(C(=O)NCCCCC(=O)OC)C1 (stereo not given)
3. NC(CSC(c1ccccc1)(c1ccccc1)c1ccc(C(=O)O)cc1)C(=O)O.[Ga] (stereo not given)
4. O=C1CCC(=O)N1C1c2ccccc2Oc2ccccc21
5. CN1CCC=C(CO)C1

1. 103 % of control
2. 86 % of control
3. 100 % of control
4. 90 % of control
5. 103 % of control

Would you be so kind as to report T/C for each listed record?
1. NCCS(=O)c1ccccc1 (stereo not given)
2. O=C(O)CNCc1cccc(Cl)c1
3. C=CCC(CC)(C(=O)O)C(=O)O
4. COc1ccc(CN(CCO)C(C)=O)cc1

["113 % of control", "102 % of control", "86 % of control", "119 % of control"]

====

system: L1210 leukemia ip in BDF1 mice, survival T/C; experiment: NCI In Vivo Anticancer Drug Screen. Data for tumor model L1210 Leukemia (intraperitoneal) in B6D2F1 (BDF1) mice; conditions: endpoint: mean survival time; dose: 100.0 mg/kg/injection; schedule: Q01DX001 (ip); vehicle: saline; higher = longer survival
Toxic doses and inconclusive results are not listed.
Provide the recorded T/C for the entries that follow.

Examples with their reported T/C follow.
[
  {
    "Molecule": "BrC1CCCCC1Br (configuration not stated)",
    "Tested target": "L1210 leukemia ip in BDF1 mice, survival T/C",
    "Data value": "98 % of control"
  },
  {
    "Molecule": "COc1ccc(Br)c([N+](=O)[O-])c1",
    "Tested target": "L1210 leukemia ip in BDF1 mice, survival T/C",
    "Data value": "103 % of control"
  },
  {
    "Molecule": "CCOC(=O)Nc1ccc2c(c1)/C(=N\\NC(N)=S)c1ccccc1-2",
    "Tested target": "L1210 leukemia ip in BDF1 mice, survival T/C",
    "Data value": "93 % of control"
  },
  {
    "Molecule": "O=C1NC(=O)C(c2ccccc2)(c2ccsc2)N1 (configuration not stated)",
    "Tested target": "L1210 leukemia ip in BDF1 mice, survival T/C",
    "Data value": "95 % of control"
  },
  {
    "Molecule": "CCCSc1ncnc2c1ncn2COC(=O)NC",
    "Tested target": "L1210 leukemia ip in BDF1 mice, survival T/C",
    "Data value": "97 % of control"
  }
]

Would you be so kind as to report T/C for each listed record?
1. COc1ccc(NC(=O)OCCN(CCOC(=O)Nc2ccc(OC)cc2)c2cccc(C)c2)cc1
2. O=c1nc(SCc2ccccc2)c(SCc2ccccc2)n[nH]1

1: 100 % of control; 2: 95 % of control

====

Provide the recorded T/C for the entries that follow.
test system: L1210 leukemia ip in BDF1 mice, survival T/C; assay: NCI In Vivo Anticancer Drug Screen. Data for tumor model L1210 Leukemia (intraperitoneal) in B6D2F1 (BDF1) mice; conditions: endpoint: mean survival time; dose: 50.0 mg/kg/injection; schedule: Q04DX002 (ip); vehicle: Klucel (hydroxypropylcellulose) (HPC); higher = longer survival
Toxic doses and inconclusive results are not listed.

Examples with their reported T/C follow.
[
  {
    "Molecule": "CC(=O)Oc1cn(Cc2ccccc2)c2c1C(=O)CC(C)C2 (configuration not stated)",
    "T/C": "108 % of control"
  },
  {
    "Molecule": "COC1OC(CI)C(OC(C)=O)C(OC(C)=O)C1OC(C)=O (configuration not stated)",
    "T/C": "94 % of control"
  },
  {
    "Molecule": "CN(CCO)CC1C(c2ccccc2)C1c1ccccc1 (configuration not stated)",
    "T/C": "90 % of control"
  },
  {
    "Molecule": "CCCCCCCCC(N)C(=O)O (configuration not stated)",
    "T/C": "91 % of control"
  },
  {
    "Molecule": "CC(C)(C)c1ccc(CBr)cc1",
    "T/C": "94 % of control"
  }
]

Would you be so kind as to report T/C for each listed record?
1. COc1ccc(/C=C/c2nccc3ccccc23)cc1OC
2. N/C(=N\OC(=O)c1ccccc1)c1ccccc1

1. 105 % of control
2. 96 % of control
